Source of measurements: patent US20260015357A1

# IC50 per entry
- assay target: NLRP3 inflammasome (Homo sapiens, UniProt Q96P20)
- Sequence (Q96P20 whole entry): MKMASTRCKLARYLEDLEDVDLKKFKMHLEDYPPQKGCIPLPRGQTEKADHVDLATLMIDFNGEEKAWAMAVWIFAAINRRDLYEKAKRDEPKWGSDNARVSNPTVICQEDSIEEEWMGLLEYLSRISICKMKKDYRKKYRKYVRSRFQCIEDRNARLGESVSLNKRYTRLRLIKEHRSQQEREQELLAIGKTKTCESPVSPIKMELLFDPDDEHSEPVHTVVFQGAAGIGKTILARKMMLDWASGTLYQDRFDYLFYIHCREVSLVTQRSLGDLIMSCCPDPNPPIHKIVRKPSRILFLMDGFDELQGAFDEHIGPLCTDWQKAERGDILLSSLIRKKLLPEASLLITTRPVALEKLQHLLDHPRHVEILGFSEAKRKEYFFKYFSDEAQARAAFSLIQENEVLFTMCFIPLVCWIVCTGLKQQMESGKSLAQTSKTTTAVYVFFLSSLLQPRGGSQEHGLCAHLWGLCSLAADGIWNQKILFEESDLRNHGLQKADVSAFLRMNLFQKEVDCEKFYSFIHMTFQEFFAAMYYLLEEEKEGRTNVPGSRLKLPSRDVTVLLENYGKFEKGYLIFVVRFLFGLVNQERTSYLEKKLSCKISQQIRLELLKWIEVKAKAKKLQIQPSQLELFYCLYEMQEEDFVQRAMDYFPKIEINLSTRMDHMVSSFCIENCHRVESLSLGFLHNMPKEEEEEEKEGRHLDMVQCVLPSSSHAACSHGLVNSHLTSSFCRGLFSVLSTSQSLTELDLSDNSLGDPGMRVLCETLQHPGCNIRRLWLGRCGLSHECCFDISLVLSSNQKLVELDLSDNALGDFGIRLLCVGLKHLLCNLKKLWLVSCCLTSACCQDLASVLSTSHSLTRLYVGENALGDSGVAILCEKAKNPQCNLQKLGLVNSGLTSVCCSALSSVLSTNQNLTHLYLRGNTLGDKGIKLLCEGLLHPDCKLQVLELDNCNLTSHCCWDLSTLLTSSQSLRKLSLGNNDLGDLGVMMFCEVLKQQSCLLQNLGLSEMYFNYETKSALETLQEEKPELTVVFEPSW
- experimental details: NLRP3 inflammasome activation in LPS-primed, nigericin-activated THP1 macrophages, IL-1β AlphaLISA
- experimental setup: PMA-differentiated, 1 hr compound, Nigericin 6.7 uM 3 hrs, IL-1β in supernatant

In [3]: df
Out[3]:
                               given_smiles  endpoint_value
0  Cc1cc(C(F)(F)F)ccc1-c1nnc(N[C@@H]2CCCN(C)C2)c2[nH]ccc12         < 10 nM

Please state recorded IC50 (tested on NLRP3 inflammasome (Homo sapiens, UniProt Q96P20)) of Cc1c[nH]c2c(-c3ccc(F)cc3)nnc(N[C@@H]3CCCN(C)C3)c12
≥ 10000 nM

Do the same for CN1CCC[C@@H](Nc2nnc(-c3ccc(C#N)cc3O)c3c2cnn3C)C1 please
10 to 100 nM

* * *

- System: IL-6
- experimental details: IL-6 in supernatants of LPS-primed, nigericin-treated THP1 macrophages, Hu IL-6 AlphaLISA
- Assay type: cell-based
- experimental setup: Homo sapiens, THP-1, PMA-differentiated, 1 hr compound, Nigericin 6.7 uM 3 hrs, IL-6 in supernatant
- Description: NLRP3 Inflammasome Activation and Cell Viability Assessment in THP1 Macrophages […] Thereafter, 30 ul samples of cells' supernatants were collected for cytokine analysis which was conducted on Hu IL-1β AlphaLISA (Perkin Elmer, cat #AL220C) and Hu IL-6 AlphaLISA (Perkin Elmer, cat #AL220C). The cells' viability was assessed by performing CellTiter-Glo Luminescent Assay (Promega, cat #G7572) according to the manufacturer's protocol.
readout: IC50

Some compounds with recorded IC50:
                                   compound  endpoint_value
0  CN1CCC[C@@H](Nc2nnc(-c3ccc(C#N)cc3C(F)F)c3cnn(C)c23)C1 [Compound 117]         ≥ 10 µM
1  CN1CCC[C@@H](N(C)c2nnc(-c3ccc(C(F)(F)F)cc3)c3c2ccn3C)C1 [Compound 71]         ≥ 10 µM
2  CN1CCC[C@@H](Nc2nnc(-c3ccc(C(F)(F)F)cn3)c3cnn(C)c23)C1 [Compound 136]       1 to 5 µM

Name the reported IC50 value associated with the compound CN1CCC[C@@H](Nc2nnc(-c3ccc(Cl)cc3)c3ccn(C)c23)C1 [Compound 80]
≥ 10 µM

Would you mind doing Cn1ccc2c(-c3ccc(C#N)cc3O)nnc(N[C@@H]3CCCN(CC(C)(C)O)C3)c21 [Compound 152] as well?
≥ 10 µM

Another compound: CC(C)N1CCC[C@@H](Nc2nnc(-c3ccc(C(F)(F)F)cc3)c3ccn(C)c23)C1 [Compound 77]
≤ 1 µM

What would you report for CN1CCC[C@@H](Nc2nnc(-c3ncc(C#N)cc3O)c3cc(Cl)n(C)c23)C1 [Compound 165] ?
≥ 10 µM

Same again, this time with Cc1cc(-c2nnc(N[C@@H]3CCCN(C)C3)c3[nH]ccc23)ccc1C(F)(F)F [Compound 23]
5 to 10 µM

* * *

- System: IL-6
- experimental details: IL-6 in supernatants of LPS-primed, nigericin-treated THP1 macrophages, Hu IL-6 AlphaLISA
- Assay type: cell-based
- experimental setup: Homo sapiens, THP-1, PMA-differentiated, 1 hr compound, Nigericin 6.7 uM 3 hrs, IL-6 in supernatant
IC50 by entry:

>>> print(df.to_string())
                                   compound  endpoint_value
0  CN1CCC[C@@H](Nc2nnc(-c3ccc(C(F)(F)F)cc3)c3cc[nH]c23)C1 (single isomer, unassigned)       1 to 5 µM
1  Cn1ccc2c(-c3ccc(C#N)cc3O)nnc(N[C@@H]3CCCN(CCO)C3)c21         ≥ 10 µM
2  Cc1cc2c(N[C@@H]3CCCN(C)C3)nnc(-c3ccc(C(F)(F)F)cc3)c2[nH]1         ≥ 10 µM

Notebook: pull reported IC50 for IL-6, entry CCN1CCC[C@@H](Nc2nnc(-c3ccc(C#N)cc3O)c3ccn(C)c23)C1
5 to 10 µM

Then Cn1ccc2c(-c3ccc(C#N)cc3O)nnc(N[C@@H]3CCCN(C4CC4)C3)c21 ?
≥ 10 µM

Try this compound next: CCN1CCC[C@@H](Nc2nnc(-c3ccc(C(F)(F)F)cc3)c3ccn(C)c23)C1
≤ 1 µM

Now the same for CN1CCC[C@@H](Nc2nnc(-c3ccc(C(F)(F)F)cc3)c3c2cnn3C)C1
≥ 10 µM

CN1CCC[C@@H](Nc2nnc(-c3ccc(C(F)(F)F)cc3)c3ccsc23)C1 ?
≥ 10 µM

And the next one, CN1CCC[C@@H](Nc2nnc(-c3ccc(F)cc3O)c3cc[nH]c23)C1 ?
5 to 10 µM

Proceed to Cc1cc(C#N)ccc1-c1nnc(N[C@@H]2CCCN(C)C2)c2c1cnn2C
≥ 10 µM

Another compound: CN1CCC[C@@H](Nc2nnc(-c3ccc(C(F)(F)F)cc3)c3ccoc23)C1
≥ 10 µM

Now consider CN1CCC[C@@H](N(C)c2nnc(-c3ccc(C(F)(F)F)cc3)c3cc[nH]c23)C1 and answer again.
≥ 10 µM

Try the compound CN1CCC[C@@H](N(C)c2nnc(-c3ccc(C(F)(F)F)cc3)c3c2cnn3C)C1
≥ 10 µM

Thanks! And Cc1cc(C(F)(F)F)ccc1-c1nnc(N[C@@H]2CCCN(C)C2)c2[nH]ccc12 ?
5 to 10 µM

Further, for CN1CCC[C@@H](Nc2nnc(-c3ccc(C(F)(F)F)cc3)c3cnsc23)C1 ?
5 to 10 µM

Same for Cn1ccc2c(-c3ccc(C#N)cc3O)nnc(N[C@@H]3CCCN(c4ccccc4)C3)c21
≥ 10 µM

* * *

- assay target: NLRP3 inflammasome (Homo sapiens, UniProt Q96P20)
- experimental details: NLRP3 inflammasome activation in LPS-primed, nigericin-activated THP1 macrophages, IL-1β AlphaLISA
- experimental setup: PMA-differentiated, 1 hr compound, Nigericin 6.7 uM 3 hrs, IL-1β in supernatant
readout: IC50

                                   compound                              assay_target  readout  endpoint_value
0  COCCN1CCC[C@@H](Nc2nnc(-c3ccc(C#N)cc3O)c3ccn(C)c23)C1 [Compound 153]  NLRP3 inflammasome (Homo sapiens, UniProt Q96P20)     IC50    10 to 100 nM
1  Cc1cc(C#N)cc(C)c1-c1nnc(N[C@@H]2CCCN(C)C2)c2c1ccn2C [Compound 126]  NLRP3 inflammasome (Homo sapiens, UniProt Q96P20)     IC50      ≥ 10000 nM
2  CN1CCC[C@@H](Oc2nnc(-c3ccc(C(F)(F)F)cc3)c3cc[nH]c23)C1 [Compound 39]  NLRP3 inflammasome (Homo sapiens, UniProt Q96P20)     IC50   100 to 500 nM

Kindly review the next compound as well.
Find the recorded IC50 belonging to CN1CCC[C@@H](Nc2nnc(-c3ccc(C#N)cc3O)c3ccn(C)c23)C1 [Compound 100] and report it.
10 to 100 nM

* * *

- Test system: IL-6
- experimental details: IL-6 in supernatants of LPS-primed, nigericin-treated THP1 macrophages, Hu IL-6 AlphaLISA
- Type: cell-based
- experimental setup: Homo sapiens, THP-1, PMA-differentiated, 1 hr compound, Nigericin 6.7 uM 3 hrs, IL-6 in supernatant
Each entry below lists one item and its recorded IC50 value.

Reference set, count: 6
>>> df
                                   molecule  assay_target  endpoint_value
0  CN1CCC[C@@H](N(C)c2nnc(-c3ccccc3O)c3[nH]ccc23)C1 (single isomer, unassigned) [Compound 68]          IL-6      5 to 10 µM
1  CN1CCC[C@@H](Nc2nnc(-c3ncc(C(F)(F)F)cc3O)c3cnn(C)c23)C1 [Compound 166]          IL-6         ≥ 10 µM
2  CN1CCC[C@@H](Nc2nnc(-c3ccc(C(F)(F)F)cc3)c3ccn(C)c23)C1 [Compound 26]          IL-6      5 to 10 µM
3  CN1CCC[C@@H](Nc2nnc(-c3ccc(C(F)(F)F)cc3)c3c2OCC3)C1 [Compound 58]          IL-6         ≥ 10 µM
4  Cc1cc2c(-c3ccc(C(F)(F)F)cc3)nnc(N[C@@H]3CCCN(C)C3)c2[nH]1 [Compound 21]          IL-6         ≥ 10 µM
5  CN1CCC[C@@H](Nc2nnc(-c3ccc(C#N)cc3O)c3cnsc23)C1 [Compound 144]          IL-6         ≥ 10 µM

May I ask what IC50 has been recorded for CN1CCC[C@@H](Nc2nnc(-c3ccc(F)cc3O)c3ccn(C)c23)C1 [Compound 78] ?
1 to 5 µM

Also, CN1CCC[C@@H](N(C)c2nnc(-c3ccc(C(F)(F)F)cc3)c3ccsc23)C1 [Compound 95] please.
≥ 10 µM
